Tested target: Angiotensin-converting enzyme (Rattus norvegicus)
Test description: In vivo dose required to produce 50% inhibition against angiotensin I in normotensive rat after intravenous administration
Type: functional, organism-based
Property measured: log10(ED50) (log10 of the value in µmol/kg)
Lab note - ED50 converted to log10 from values in µmol/kg.

These recorded examples may help you get a feel for the data.
>>> print(df.to_string())
                           substance_smiles                             tested_target  test_value
0  NCCCC[C@H](OP(=O)(O)CCCCc1ccccc1)C(=O)N(CC(=O)O)c1ccccc1  Angiotensin-converting enzyme (Rattus norvegicus)       -0.87
1  NCCCC[C@H](OP(=O)(O)CCCCc1ccccc1)C(=O)N1C[C@H](C2CCCCC2)C[C@H]1C(=O)O  Angiotensin-converting enzyme (Rattus norvegicus)       -0.96
2  NCCCC[C@H](OP(=O)(O)CCCCc1ccccc1)C(=O)N1CC(F)(F)C[C@H]1C(=O)O  Angiotensin-converting enzyme (Rattus norvegicus)       -0.79
3  NCCCC[C@H](OP(=O)(O)CCCCc1ccccc1)C(=O)N1CC=C[C@H]1C(=O)O  Angiotensin-converting enzyme (Rattus norvegicus)       -0.98
4  NCCCC[C@H](OP(=O)(O)CCCCc1ccccc1)C(=O)N1C[C@H](O)C[C@H]1C(=O)O  Angiotensin-converting enzyme (Rattus norvegicus)       -0.47
5  NCCCC[C@H](OP(=O)(O)CCCCc1ccccc1)C(=O)N1C[C@@H](c2ccccc2)C[C@H]1C(=O)O  Angiotensin-converting enzyme (Rattus norvegicus)       -1.43

Give the reported log10(ED50) for `NCCCC[C@H](OP(=O)(O)CCCCc1ccccc1)C(=O)N1C[C@H](Sc2ccccc2)C[C@H]1C(=O)O` (system: Angiotensin-converting enzyme (Rattus norvegicus)).
-1.18

Give the reported log10(ED50) for `CS[C@@H]1C[C@@H](C(=O)O)N(C(=O)[C@H](CCCCN)OP(=O)(O)CCCCc2ccccc2)C1` (system: Angiotensin-converting enzyme (Rattus norvegicus)).
-1.51

====

Tested target: Angiotensin-converting enzyme (Rattus norvegicus) (UniProt P47820)
Sequence (P47820 whole entry): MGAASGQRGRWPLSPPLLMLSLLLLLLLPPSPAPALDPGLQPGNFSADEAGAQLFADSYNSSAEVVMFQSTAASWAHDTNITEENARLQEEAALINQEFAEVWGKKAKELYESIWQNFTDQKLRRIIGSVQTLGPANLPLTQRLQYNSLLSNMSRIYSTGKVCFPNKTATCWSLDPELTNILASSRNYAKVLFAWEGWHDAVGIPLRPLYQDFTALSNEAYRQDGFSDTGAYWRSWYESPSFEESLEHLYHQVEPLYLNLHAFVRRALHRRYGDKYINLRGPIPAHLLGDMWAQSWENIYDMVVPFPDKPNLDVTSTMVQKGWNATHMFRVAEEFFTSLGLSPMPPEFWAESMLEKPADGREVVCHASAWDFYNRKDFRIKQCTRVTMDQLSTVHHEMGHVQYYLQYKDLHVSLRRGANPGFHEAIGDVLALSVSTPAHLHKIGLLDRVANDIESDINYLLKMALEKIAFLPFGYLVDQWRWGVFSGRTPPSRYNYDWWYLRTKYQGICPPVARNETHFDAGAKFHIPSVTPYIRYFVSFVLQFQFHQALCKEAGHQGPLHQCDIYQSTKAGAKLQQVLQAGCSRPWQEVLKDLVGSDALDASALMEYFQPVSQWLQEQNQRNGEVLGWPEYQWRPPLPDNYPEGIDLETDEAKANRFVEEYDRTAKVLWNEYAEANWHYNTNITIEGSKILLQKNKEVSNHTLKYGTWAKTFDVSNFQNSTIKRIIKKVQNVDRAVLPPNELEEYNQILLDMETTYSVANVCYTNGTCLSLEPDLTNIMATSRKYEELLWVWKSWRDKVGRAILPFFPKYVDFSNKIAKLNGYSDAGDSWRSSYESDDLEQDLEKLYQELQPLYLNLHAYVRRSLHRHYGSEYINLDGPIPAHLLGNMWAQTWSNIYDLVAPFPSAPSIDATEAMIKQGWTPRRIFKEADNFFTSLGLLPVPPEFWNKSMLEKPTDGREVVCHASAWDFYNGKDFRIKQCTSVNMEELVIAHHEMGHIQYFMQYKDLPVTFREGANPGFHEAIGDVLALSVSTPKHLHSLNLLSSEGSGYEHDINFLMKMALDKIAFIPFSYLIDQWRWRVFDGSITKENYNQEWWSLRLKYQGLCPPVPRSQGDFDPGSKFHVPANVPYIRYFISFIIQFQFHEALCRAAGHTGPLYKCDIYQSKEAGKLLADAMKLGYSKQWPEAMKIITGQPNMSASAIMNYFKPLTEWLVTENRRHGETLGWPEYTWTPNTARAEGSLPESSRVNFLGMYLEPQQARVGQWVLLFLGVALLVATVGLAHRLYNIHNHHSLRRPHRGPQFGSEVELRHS
Test description: In vivo dose required to produce 50% inhibition against angiotensin I in normotensive rat after intravenous administration
Assay type: functional, organism-based
Entries and their log10 of ED50
Lab note - ED50 converted to log10 from values in µmol/kg.

These recorded examples may help you get a feel for the data.
In [3]: df
Out[3]:
                           substance_smiles                             tested_target  test_value
0  NCCCC[C@H](OP(=O)(O)CCCCc1ccccc1)C(=O)N(CC(=O)O)C1Cc2ccccc2C1  Angiotensin-converting enzyme (Rattus norvegicus) (UniProt P47820)       -0.71
1  NCCCC[C@H](OP(=O)(O)CCCCc1ccccc1)C(=O)N1COC[C@H]1C(=O)O  Angiotensin-converting enzyme (Rattus norvegicus) (UniProt P47820)       -0.17
2  CSC1(SC)C[C@@H](C(=O)O)N(C(=O)[C@H](CCCCN)OP(=O)(O)CCCCc2ccccc2)C1  Angiotensin-converting enzyme (Rattus norvegicus) (UniProt P47820)       -0.85
3  NCCCC[C@H](OP(=O)(O)CCCCc1ccccc1)C(=O)N1CCC[C@H]1C(=O)O  Angiotensin-converting enzyme (Rattus norvegicus) (UniProt P47820)       -1.20
4  NCCCC[C@H](OP(=O)(O)CCCCc1ccccc1)C(=O)N1[C@H](C(=O)O)C[C@@H]2CCCC[C@@H]21  Angiotensin-converting enzyme (Rattus norvegicus) (UniProt P47820)       -1.00

Need log10 of ED50 of `COc1ccc(N(CC(=O)O)C(=O)[C@H](CCCCN)OP(=O)(O)CCCCc2ccccc2)cc1` , thanks.
-1.37

Need log10 of ED50 of `NCCCC[C@H](OP(=O)(O)CCCCc1ccccc1)C(=O)N1C[C@@H](C2CCCCC2)C[C@H]1C(=O)O` , thanks.
-1.22

Need log10 of ED50 of `CS[C@H]1C[C@@H](C(=O)O)N(C(=O)[C@H](CCCCN)OP(=O)(O)CCCCc2ccccc2)C1` , thanks.
-1.23

Need log10 of ED50 of `NCCCC[C@H](OP(=O)(O)CCCCc1ccccc1)C(=O)N1CSC[C@H]1C(=O)O` , thanks.
-0.91
